targetOrSystem: HLA A0301 (human)
protocolDescription: 125I-probe competition, purified HLA
Each entry below lists one item and its recorded IC50 value.
All answers are understood in nM, so give the number only.

binder | endpointLabel | experimentalValue
STVSVGTAK (modifications not checked) [HPV18.E2.230] | IC50 | 34
AVMCRHYKR (modifications not checked) [HPV45.E1.399] | IC50 | 311
ISFAGIVTK (modifications not checked) [HPV31.E2.205] | IC50 | 17
KSLFGMSLMK (modifications not checked) [HPV16.E1.483] | IC50 | 3.9
AATKYPLLK (modifications not checked) [HPV16.E4.9] | IC50 | 59

Note down IC50 recorded for SVICFVNSK (modifications not checked) [HPV16.E1.497]
109

Note down IC50 recorded for QVVPAYNISK (modifications not checked) [HPV18.E2.61]
308

Note down IC50 recorded for TVSATQLVK (modifications not checked) [HPV18.E2.211]
7
